Recorded composite z-score values for a group of molecules are listed next.
target: Follistatin (Homo sapiens) (UniProt P19883); assay: FST protein binding to printed compounds – biochemical, small-molecule microarray, 635/667 nm fluorescence, primary screen (AID 1132); details: 635 nm fluorescence, higher = more signal
Sequence (P19883 whole entry, looked up): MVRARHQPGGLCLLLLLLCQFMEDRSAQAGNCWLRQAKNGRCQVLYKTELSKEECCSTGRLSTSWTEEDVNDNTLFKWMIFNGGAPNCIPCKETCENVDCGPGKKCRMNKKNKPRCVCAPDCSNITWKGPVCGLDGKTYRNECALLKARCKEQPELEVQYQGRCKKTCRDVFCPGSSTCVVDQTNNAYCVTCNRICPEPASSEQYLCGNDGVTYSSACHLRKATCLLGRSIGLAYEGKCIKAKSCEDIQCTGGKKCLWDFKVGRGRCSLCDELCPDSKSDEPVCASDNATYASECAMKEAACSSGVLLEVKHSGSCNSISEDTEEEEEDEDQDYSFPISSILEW
Respond numerically, and do not add a unit to the figure.

Solved entries (count: 6):
| MOLECULE | RECORDED_VALUE |
| --- | --- |
| COC(=O)[C@@]1(Cc2ccccc2)[C@H]2c3cc(C(=O)N(C)C)n(Cc4ccccc4)c3C[C@H]2CN1C(=O)c1ccccc1 | 0.241 |
| COc1ccc(C(O)C2C=CC3C(=O)N(c4ccccc4)C(=O)C3N2Nc2ccccc2)c2ccccc12 (centres undefined) | 0.037 |
| COC(=O)C(CC#Cc1ccc2c(c1)[C@]1(C(=O)N2)[C@H](C(=O)N2CCCCCCC2)[C@H]2C(=O)O[C@H](c3ccccc3)[C@H](c3ccccc3)N2[C@@H]1c1ccccc1OCCO)C(=O)OC | 1.56 |
| O=P(NCC1(CC2(c3ccccc3)CO2)CC1)(c1ccccc1)c1ccccc1 (centres undefined) | -1.23 |
| CCCC[C@@H]1C[C@H]1[C@@H](NC(=O)c1ccccc1)c1ccc(-c2ccccc2)cc1 | 0.203 |
| C[N+](C)(C)CCCC[C@@H]1NC(=O)[C@@H]2C[C@H](C(=O)NCCCCCCNC(=O)CS)[C@H](c3cccc(OCCO)c3)N2C1=O | 1.27 |

# context switch: different molecule, same composite z-score
**Q:** Given the entry C=CCNC(=O)[C@H]1[C@@H]2C(=O)O[C@@H](c3ccccc3)[C@@H](c3ccccc3)N2[C@@H](c2ccc(O)cc2)[C@]12C(=O)Nc1ccc(C#Cc3ccc(OC)cc3)cc12 , report its measured composite z-score.
**A:** 1.16
